readout: melting point

Sample answers from the record:
CCOC(=O)CSC1=C(C=O)CCc2c(C(=O)OCC)sc(SC)c21 : 102 to 103 °C
O=C1c2cc(F)ccc2-n2cnc(C(=O)n3ccnc3)c2[C@@H]2CCCN12 : 206 to 207 °C
CSc1ccc(N=C=O)cc1C(F)(F)F : 40 °C
COc1ccc(C=C(C)[N+](=O)[O-])c(OC)c1 : 80 to 81 °C
COC(=O)c1cc(-c2cccc(C(F)(F)F)c2)c[nH]c1=O : 195 to 201 °C
CCCNC(=O)NCC1CCCCC1 : 60 to 61 °C
C[C@@H](N[C@@H](CC(=O)O)Cc1cc(F)c(F)cc1F)c1ccccc1 : 144 °C
CCOC(=O)C=Cc1ccc(OCc2ccccc2)c(OC)c1 : 74.5 to 75 °C

Challenge: GET /values?readout=melting point&item= CC1CCCN1CCCN1C(=C(C#N)C#N)N(CCN2CCCCC2)c2ccccc21 (stereo not drawn)
Response given: 85 to 86 °C

Challenge: Check `CNc1cc(C)c(O)c(C)c1C` too.
Response given: 120 to 122 °C

Challenge: Try this compound too: `Clc1ncccc1-c1ccccc1`
Response given: 48 °C

Challenge: Now the compound `N#CCCOCc1cc(Cl)nc(Cl)c1`
Response given: 65.5 °C

Challenge: Same question, `O=C(NCc1ccncc1)c1ccnc(N2CCN(Cc3ccc(F)cc3)C2=O)c1` this time
Response given: 205 to 207 °C

Origin of the recorded values: a melting point compilation (Tetko et al.; mined from patent text by program, amines drawn as free bases though some values may be those of a salt)
